The entries below come with measured inhibition values attached.
Molecular target: UniProtKB Q9Y233
Sequence (Q9Y233 whole entry): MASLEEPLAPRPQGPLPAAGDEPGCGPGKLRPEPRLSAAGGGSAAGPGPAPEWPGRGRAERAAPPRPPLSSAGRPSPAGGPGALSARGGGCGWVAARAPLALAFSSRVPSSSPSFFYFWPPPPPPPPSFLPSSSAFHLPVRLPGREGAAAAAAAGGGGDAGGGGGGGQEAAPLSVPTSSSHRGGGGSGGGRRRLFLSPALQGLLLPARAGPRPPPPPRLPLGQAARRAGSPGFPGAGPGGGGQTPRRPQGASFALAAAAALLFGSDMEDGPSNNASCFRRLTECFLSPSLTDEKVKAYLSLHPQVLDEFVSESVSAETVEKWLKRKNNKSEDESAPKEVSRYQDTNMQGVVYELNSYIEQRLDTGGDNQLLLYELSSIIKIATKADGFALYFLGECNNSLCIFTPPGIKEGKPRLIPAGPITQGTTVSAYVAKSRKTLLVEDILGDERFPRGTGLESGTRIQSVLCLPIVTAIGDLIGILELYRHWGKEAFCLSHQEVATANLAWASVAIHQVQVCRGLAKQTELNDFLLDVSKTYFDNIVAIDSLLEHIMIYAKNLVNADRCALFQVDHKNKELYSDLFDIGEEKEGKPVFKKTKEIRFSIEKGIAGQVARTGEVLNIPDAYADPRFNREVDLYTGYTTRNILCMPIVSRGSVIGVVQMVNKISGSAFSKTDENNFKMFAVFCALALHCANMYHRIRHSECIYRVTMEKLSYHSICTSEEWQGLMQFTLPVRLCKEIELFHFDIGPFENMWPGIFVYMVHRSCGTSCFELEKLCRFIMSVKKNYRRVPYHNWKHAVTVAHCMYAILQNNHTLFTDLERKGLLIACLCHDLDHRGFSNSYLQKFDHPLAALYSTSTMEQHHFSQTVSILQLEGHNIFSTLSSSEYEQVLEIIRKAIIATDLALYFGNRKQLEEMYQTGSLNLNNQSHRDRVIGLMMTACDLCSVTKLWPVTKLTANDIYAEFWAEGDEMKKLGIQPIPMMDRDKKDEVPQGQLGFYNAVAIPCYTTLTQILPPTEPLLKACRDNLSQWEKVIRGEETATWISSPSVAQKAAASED
Assay: Inhibition of PDE10A at 10 uM
experimental readout: inhibition (%)

compound_structure_string=Nc1nc2c3ccccc3nc(-c3ccccc3Cl)n2n1 experimental_readout=inhibition u=% data_value=41
compound_structure_string=Nc1nc2c3ccccc3nc(-c3ccccc3)n2n1 experimental_readout=inhibition u=% data_value=27
compound_structure_string=Nc1nc2c3ccccc3nc(-c3ccc(Br)cc3)n2n1 experimental_readout=inhibition u=% data_value=31
compound_structure_string=N#CCSc1nc2ccccc2c2nc(CCO)nn12 experimental_readout=inhibition u=% data_value=57

----------
The entries below come with measured efflux ratio values attached.
System: MDR1 (P-gp)
Assay: Efflux ratio of permeability in MDR1-overexpressing MDCK cells
Assay type: ADME, cell-based, Canis lupus familiaris
Details: dog
experimental readout: efflux ratio

compound_structure_string=Cc1nc2c3ccccc3nc(SCc3ccc4ccccc4n3)n2n1 experimental_readout="efflux ratio" data_value=0.4
compound_structure_string=Cc1nc2c3ccccc3nc(SCc3cn4ccccc4n3)n2n1 experimental_readout="efflux ratio" data_value=0.49
compound_structure_string=Cc1nc2c3ccccc3nc(SCc3cn4cccnc4n3)n2n1 experimental_readout="efflux ratio" data_value=0.84
compound_structure_string=Cc1nc2c3ccccc3nc(SCc3nc4ccccc4[nH]3)n2n1 experimental_readout="efflux ratio" data_value=0.57
compound_structure_string=Cc1nc2c3ccccc3nc(SCc3nc4ccccc4n3C)n2n1 experimental_readout="efflux ratio" data_value=0.46
compound_structure_string=Cc1nc2c3ccccc3nc(SCc3nc4ccccc4o3)n2n1 experimental_readout="efflux ratio" data_value=0.43

// provenance: ChEMBL document CHEMBL1777757
